// data source = PubChem BioAssay (Tox21)

test: qHTS assay to identify small molecule antagonists of the estrogen related receptor (ERR) signaling pathway - cell viability counter screen (AID 1224818); details: ERR reporter cell line viability counter screen; series mostly up to 46.1 µM;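 note: viability measured after 17.5 h of compound exposure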
Results filed as inconclusive are left out. Calls of active or inactive are those of the source. Calls come from the whole dose curve; as a rule, active = well fitted cell-killing curve with a large enough effect in the repeat runs; inconclusive = weak or mixed curves; inactive = flat fitted curve, though single readings scatter.
Experimental Readout: outcome

Compound: O=c1[nH]c2ccccc2c2ccccc12
Endpoint Result: inactive

Compound: C[N+]1(CCCCC[N+]2(C)CCCC2)CCCC1
Endpoint Result: inactive

Compound: Nc1ncnc2c1ncn2C1CCCO1 (stereo unspecified)
Endpoint Result: inactive

Compound: O=C(O)C1=CCCN(CCON=C(c2ccccc2)c2ccccc2)C1
Endpoint Result: inactive

Compound: CN=C(N)NCCC[C@H](N)C(=O)O
Endpoint Result: inactive

API: the following record is the query input.
Field request: outcome | item: NCCCCN=C(N)N
inactive
